Target: Leukocyte tyrosine kinase receptor (Homo sapiens)
Conditions: at 0.1 µM
Description: GSK_PKIS: LTK mean inhibition at 0.1 uM [Nanosyn]
In this section we review reported inhibition values for a set of molecules.
Quick note: give the figure in %, leave out the unit.

Past entries and their recorded results:
Fc1ccc(-c2ncn(C3CCNCC3)c2-c2ccnc(Oc3ccccc3)n2)cc1 0.54
Nc1nonc1-c1nc2cnccc2n1C1CCCCC1 -0.53

Exercise: Which inhibition is reported for this molecule? CCn1c(-c2nonc2N)nc2c(C#CC(C)(C)O)ncc(OC[C@@H]3CCCN3)c21
Key: 0.71

====

Molecular target: Serine/threonine-protein kinase BRSK2 (Homo sapiens) (UniProt Q8IWQ3);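 further: values are mean inhibition of BRSK2 from the GSK PKIS screening dataset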
Sequence (whole entry): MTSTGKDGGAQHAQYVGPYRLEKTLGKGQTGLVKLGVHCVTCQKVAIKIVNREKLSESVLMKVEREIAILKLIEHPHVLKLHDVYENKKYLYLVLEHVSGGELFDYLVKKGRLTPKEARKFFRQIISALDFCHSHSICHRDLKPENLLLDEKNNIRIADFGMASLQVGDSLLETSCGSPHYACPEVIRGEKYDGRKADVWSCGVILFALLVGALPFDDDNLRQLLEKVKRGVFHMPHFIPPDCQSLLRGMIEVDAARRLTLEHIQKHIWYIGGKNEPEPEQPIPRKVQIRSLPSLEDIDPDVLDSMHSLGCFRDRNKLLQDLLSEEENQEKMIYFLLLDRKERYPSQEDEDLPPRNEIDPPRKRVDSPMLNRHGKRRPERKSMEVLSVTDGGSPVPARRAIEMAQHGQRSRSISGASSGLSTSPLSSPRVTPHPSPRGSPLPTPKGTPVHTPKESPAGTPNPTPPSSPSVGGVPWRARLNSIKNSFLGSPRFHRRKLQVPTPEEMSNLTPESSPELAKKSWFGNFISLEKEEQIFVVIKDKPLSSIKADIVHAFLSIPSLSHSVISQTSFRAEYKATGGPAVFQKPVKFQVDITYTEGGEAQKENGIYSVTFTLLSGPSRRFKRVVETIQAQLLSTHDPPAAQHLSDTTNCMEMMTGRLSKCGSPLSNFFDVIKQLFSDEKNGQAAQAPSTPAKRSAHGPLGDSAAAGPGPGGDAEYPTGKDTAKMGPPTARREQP
Settings: at 0.1 µM
The threshold is inclusive: inhibition of exactly 4% counts as 1; values below receive 0.

Examples from the recorded data:
CCn1c(-c2nonc2N)nc2c(C#CCN)ncc(OCCCN)c21 1
Nc1nonc1-c1nc2cnccc2n1C1CCCCC1 0
CCn1c(-c2nonc2N)nc2c(C#CC(C)(C)O)ncc(OCC3CCNCC3)c21 0
Cc1cc(-c2ccco2)cc(C)c1/C=C/c1cncc(-c2nn[nH]n2)c1 0

Moving on to the next compound.
Exercise: Could you tell me if the measured inhibition of COc1cccc(COc2cc(-n3cnc4ccccc43)sc2C(N)=O)c1 reaches 4% or more?
Key: 0
